# measured.target: DNA dC->dU-editing enzyme APOBEC-3G (Homo sapiens) (UniProt Q9HC16)
# Sequence (Q9HC16 whole entry, looked up): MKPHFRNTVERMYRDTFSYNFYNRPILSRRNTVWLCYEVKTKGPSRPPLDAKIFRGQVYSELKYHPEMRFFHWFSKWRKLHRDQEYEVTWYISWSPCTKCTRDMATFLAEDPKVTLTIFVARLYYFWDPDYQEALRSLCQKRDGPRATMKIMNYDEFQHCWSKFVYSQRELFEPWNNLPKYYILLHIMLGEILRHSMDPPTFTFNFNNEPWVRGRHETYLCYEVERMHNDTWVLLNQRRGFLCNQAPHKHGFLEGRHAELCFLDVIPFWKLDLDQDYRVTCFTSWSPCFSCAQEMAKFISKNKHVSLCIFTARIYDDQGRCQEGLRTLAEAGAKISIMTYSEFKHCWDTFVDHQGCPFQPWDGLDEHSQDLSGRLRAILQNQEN
# method.notes: qHTS for inhibitors of Vif-A3G interactions: Validation (AID 588379)
# measurement.parameters: Vif-A3G protein interaction assay; series mostly up to 46.1 µM
Calls of active or inactive are those of the source. Calls follow the shape of the dose curve; as a rule, active = well fitted inhibition curve with a large enough effect; inconclusive = small, poorly fitted or top-dose-only effect; inactive = flat fitted curve, though single readings scatter.
Field 'call' accepts active, inactive

In: How did this test come out for `Cc1nc2sccn2c(=O)c1CCN1CCC(=C(c2ccccc2)c2ccc(F)cc2)CC1` ?
Out: inactive

In: How did this test come out for `COc1cc2c(CCNC(C)=O)c[nH]c2cc1Cl` ?
Out: inactive

In: How did this test come out for CCC1C(=O)OCC1Cc1cncn1C (configuration not stated) ?
Out: inactive

In: How did this test come out for `C[N+]1(C)CCC(OC(=O)C(c2ccccc2)c2ccccc2)CC1` ?
Out: inactive

In: How did this test come out for CN1[C@@H]2CC[C@H]1CC(OC(=O)C(CO)c1ccccc1)C2 (some centres not stated) ?
Out: inactive

In: How did this test come out for `O=C(Nc1cccc(C(=O)Nc2ccc(S(=O)(=O)O)c3cc(S(=O)(=O)O)cc(S(=O)(=O)O)c23)c1)Nc1cccc(C(=O)Nc2ccc(S(=O)(=O)O)c3cc(S(=O)(=O)O)cc(S(=O)(=O)O)c23)c1` ?
Out: inactive

In: How did this test come out for `O=C(O)c1cc(=O)c2c(Cl)cc(Cl)cc2[nH]1` ?
Out: inactive

In: How did this test come out for CC12C(=O)OC(=O)C1(C)C1CCC2O1 (configuration not stated) ?
Out: inactive

In: How did this test come out for `CC(C)NC[C@H](O)COc1cccc2[nH]ccc12` ?
Out: inactive

In: How did this test come out for `Cn1cc(C2=C(c3ccc(Cl)cc3Cl)C(=O)NC2=O)c2ccccc21` ?
Out: active

In: How did this test come out for `CNCC[C@H](Oc1ccc(C(F)(F)F)cc1)c1ccccc1` ?
Out: inactive

In: How did this test come out for `O=C(O)[C@@H]1C[C@@H](C(=O)O)N1` ?
Out: inactive

In: How did this test come out for `O=C(O)c1cc([N+](=O)[O-])ccc1NCCCc1ccccc1` ?
Out: inactive

In: How did this test come out for `CCCCCCCC/C=C\CCCCCCCC(=O)NCCO` ?
Out: inactive

In: How did this test come out for `C[C@@H](NC(=O)/C(C#N)=C/c1ccc(O)c(O)c1)c1ccccc1` ?
Out: inactive

In: How did this test come out for `CN1CCC[C@H]1c1cccnc1` ?
Out: inactive

In: How did this test come out for `N[C@@H](CC(=O)O)C(=O)O` ?
Out: inactive
